Catalogue of Potency values
Assay: qHTS Assay for Modulators of miRNAs and/or Inhibitors of miR-21; further: potency means the concentration at half of the fitted maximal effect; nearly all actives have a fitted effect of over 55% in size
Details: HeLa miR-21-FLuc reporter, luciferase luminescence, 48 h; actives lower the signal
Among all 340,000 compounds or so, about 3,300 (0.97%) were called active. Another 9% or so got no clear call; they are omitted. This is one part of the list.
quantity measured: Potency

>>> val("CN(/N=C/c1ccc2c(c1)OCO2)c1ccccc1")
"6.56 µM (active)"
>>> val("O=C1CCNc2ccc(-c3ccccc3)cc21")
"6.56 µM (active)"
>>> val("C/C(=N\\NC(=O)c1ccoc1C)c1ccc(Br)s1")
"11.7 µM (active)"
>>> val("Cc1cc(C)n2nc(-c3cccc(Br)c3)cc2n1")
"3.29 µM (active)"
>>> val("Cc1occc1C(=O)N/N=C/c1ccc(Br)s1")
"6.56 µM (active)"
>>> val("O=C(Nc1ccc(SC(F)(F)F)cc1)c1ccccn1")
"0.369 µM (active)"
>>> val("CC(=O)COc1ccc2c3c(c(=O)oc2c1C)CCCCC3")
"3.29 µM (active)"
>>> val("Cc1nc2cc(-c3ccc(Cl)cc3)nn2c(NCCN(C)C)c1C")
"5.85 µM (active)"
>>> val("CCOc1ccc(/C=N/N(C)c2ccccc2)cc1OC")
"4.65 µM (active)"
>>> val("CN(C)c1ccc(-n2cccc2/C=N/n2cnnc2)cc1")
"8.26 µM (active)"
>>> val("CCN=C1S/C(=C\\c2ccc(-c3cccc(C(=O)O)c3)o2)C(=O)N1CC")
"0.656 µM (active)"

###

Test: qHTS Assay for Modulators of miRNAs and/or Inhibitors of miR-21; further: potency means the concentration at half of the fitted maximal effect; nearly all actives have a fitted effect of over 55% in size
Conditions: HeLa miR-21-FLuc reporter, luciferase luminescence, 48 h; actives lower the signal
The campaign covered roughly 340,000 compounds. About 3,300 (0.97%) were called active. Roughly 9% stayed inconclusive and do not appear here. This is one part of the list.
quantity measured: Potency

>>> val("CCOc1cc(/C=C2\\N=C3CCCCCN3C2=O)ccc1O")
"14.7 µM (active)"
>>> val("Cc1cccc2sc(NC(=O)C3CCCO3)nc12 (stereo unspecified)")
"13.1 µM (active)"
>>> val("COCn1c(COc2ccc3ccccc3c2)nc2ccccc21")
"2.07 µM (active)"
>>> val("COCn1c(-c2ccc(OC)cc2)nc2ccccc21")
"3.69 µM (active)"
>>> val("Cn1cc([N+](=O)[O-])c(C(=O)Nc2ccc(-c3nc4ccccc4o3)cc2)n1")
"7.36 µM (active)"
>>> val("O=C(CSc1nnc(C2CCCCC2)o1)Nc1ccccc1Cl")
"7.36 µM (active)"
>>> val("COc1cccc2cc(C(=O)Nc3ccc(C)cc3)c(=O)oc12")
"0.736 µM (active)"
>>> val("Cc1ccc(OC(=O)COc2ccccc2C)c(-n2nc3ccccc3n2)c1")
"4.14 µM (active)"
>>> val("COc1ccccc1Nc1ccc(Nc2ccccc2OC)nn1")
"7.36 µM (active)"
>>> val("CCSc1ccccc1C(=O)Nc1ccc(-c2nc3ccccc3s2)c(O)c1")
"3.69 µM (active)"
>>> val("O=C(Nc1nnc(SCc2c(Cl)cccc2Cl)s1)C1CCCO1 (stereo unspecified)")
"18.5 µM (active)"
>>> val("O=C(Nc1cccc2ccccc12)c1ccccc1")
"6.56 µM (active)"
>>> val("COc1ccccc1Oc1ncnc2c1cnn2-c1ccccc1")
"5.85 µM (active)"
>>> val("Cc1cc(C)n(-c2nnc(NC34CC5CC(CC(C5)C3)C4)nn2)n1")
"5.21 µM (active)"
>>> val("CC(C)(CO)NC(=O)c1ccc2c(c1)C(=O)c1ccccc1-2")
"5.21 µM (active)"
>>> val("O=C(Nc1ccc(-c2nc3ccccc3s2)c(O)c1)C1=COCCO1")
"0.261 µM (active)"
>>> val("Cc1[nH]c2ccccc2c1C(=O)CSC(=S)N1CCCCC1")
"3.29 µM (active)"
>>> val("CC(C)=CCN1CCN(Cc2cnc(N3CCOCC3)s2)CC1CCO (stereo unspecified)")
"1.65 µM (active)"
>>> val("O=C(O)c1c2c(nc3ccccc13)/C(=C/c1ccc(OC(F)F)cc1)CCC2")
"14.7 µM (active)"
>>> val("CCOC(=O)c1ccc2c(c1)NCc1cccc(OC)c1O2")
"3.29 µM (active)"
>>> val("COc1cc(/C=C2/C(=O)ON=C2C)ccc1OCc1cccc(F)c1")
"10.4 µM (active)"
>>> val("Cc1cccc(-c2nsc(SCC(=O)Nc3ccc4c(c3)OCO4)n2)c1")
"13.1 µM (active)"
>>> val("Fc1ccccc1Nc1nc2c(s1)CCc1ccccc1-2")
"0.464 µM (active)"
>>> val("O=C(Nc1cccc2ccccc12)c1onc2c1CCCC2")
"5.85 µM (active)"
>>> val("c1ccc(-c2noc(-c3ccc4c(c3)OCO4)n2)cc1")
"0.293 µM (active)"
>>> val("CCCNC(=O)c1cc(-c2ccc(OC)cc2)on1")
"0.927 µM (active)"
>>> val("c1ccc(-c2onc3cc4c(cc23)OCCO4)cc1")
"2.07 µM (active)"
>>> val("Cc1ccc(OC(=O)c2cccc(S(=O)(=O)N(C)C)c2)c(-n2nc3ccccc3n2)c1")
"5.85 µM (active)"
>>> val("O=C(NCc1cccnc1)c1cc(-c2ccccc2)on1")
"18.5 µM (active)"
>>> val("N#Cc1ccc(-c2cccnc2)nc1SCC(=O)c1ccccc1")
"5.85 µM (active)"
>>> val("CCOc1ccc(Nc2oc(Cc3ccccc3)nc2C#N)cc1")
"11.7 µM (active)"
>>> val("COc1ccc(NC(=O)c2cc3ccccc3o2)c(OC)c1")
"0.585 µM (active)"
>>> val("Cc1ccc(O)c(-n2nc3ccccc3n2)c1")
"11.7 µM (active)"
>>> val("COc1ccc(-c2nc(-c3cccc(C)c3)no2)cc1OC")
"2.93 µM (active)"
>>> val("CCOC(=O)CSc1nc2cc3c(cc2cc1C#N)OCO3")
"1.04 µM (active)"
>>> val("O=C(Nc1ccc(-c2nc3ccccc3s2)c(OC(=O)c2ccccc2)c1)c1ccccc1")
"0.329 µM (active)"

###

Catalogue of Potency values
Experiment: qHTS Assay for Modulators of miRNAs and/or Inhibitors of miR-21; further: potency means the concentration at half of the fitted maximal effect; nearly all actives have a fitted effect of over 55% in size
Conditions: HeLa miR-21-FLuc reporter, luciferase luminescence, 48 h; actives lower the signal
The whole screen tested about 340,000 compounds, of which about 3,300 (0.97%) were called active. Not shown: some 9% with an inconclusive outcome. The list shows a part of the results.
quantity measured: Potency

>>> val("O=[N+]([O-])c1nn(-c2ccc3c(c2)OCCO3)n(O)c1=NCc1ccc(F)cc1")
"1.17 µM (active)"
>>> val("O=C(NCCCn1ccnc1)c1cc(-c2cccs2)on1")
"14.7 µM (active)"
>>> val("Cc1cc(C(=O)Nc2sc3c(c2C#N)CCC(C)C3)cs1 (stereo not given)")
"0.736 µM (active)"
>>> val("Cn1nnc(NC(=O)c2ccc3ccccc3c2)n1")
"14.7 µM (active)"
>>> val("CC(NC(=O)c1cc(COc2ccccc2)on1)c1nccs1 (stereo not given)")
"2.07 µM (active)"
>>> val("CCOc1ccccc1NC(=O)CN1C(=O)CC(c2ccc(C)c(C)c2)=Nc2ccccc21")
"8.26 µM (active)"
>>> val("O=C(CSc1nnc2sc3ccccc3n12)c1ccco1")
"16.5 µM (active)"
>>> val("CC(C)n1c(/C=C/c2ccccc2)nc2ccccc21")
"6.56 µM (active)"
>>> val("CCN1CCN(Cc2ccc(NC(=O)Nc3ccccc3Cl)cc2)CC1")
"1.31 µM (active)"
>>> val("COc1ccc(/C=N/Nc2nncc3ccccc23)c(OC)c1")
"5.85 µM (active)"
>>> val("O=C(Nc1ccc(Cl)c(Cl)c1)c1ccccc1NC(=O)C1CC=CCC1C(=O)O (stereo not given)")
"6.56 µM (active)"
>>> val("COc1ccc(CN=C(C)c2c(C(F)(F)F)[nH]n(-c3nc4ccccc4s3)c2=O)cc1")
"7.36 µM (active)"
>>> val("O=S(=O)(Nc1cccc(-c2ccc(N3CCCCCC3)nn2)c1)c1ccc(F)cc1")
"13.1 µM (active)"
>>> val("CCOC(=O)c1sc2nc(-c3cccnc3)ccc2c1N")
"0.369 µM (active)"
>>> val("Cc1ccc(CC(=O)O/N=C(\\N)c2ccccn2)cc1")
"4.14 µM (active)"

###

Experiment: qHTS Assay for Modulators of miRNAs and/or Inhibitors of miR-21; further: potency means the concentration at half of the fitted maximal effect; nearly all actives have a fitted effect of over 55% in size
Conditions: HeLa miR-21-FLuc reporter, luciferase luminescence, 48 h; actives lower the signal
The whole screen tested about 340,000 compounds, of which about 3,300 (0.97%) were called active. About 9% were inconclusive and are not listed. Some of the results follow.
quantity measured: Potency

>>> val("CC1(C)CC(=O)c2cnc(N3CCc4ccccc43)nc2C1")
"1.85 µM (active)"
>>> val("O=C1NCC2=C1C(c1ccccc1)Nc1ccccc1N2 (centres undefined)")
"14.7 µM (active)"
>>> val("COc1ccc(Nc2oc(-c3ccccc3)nc2C#N)cc1")
"1.85 µM (active)"
>>> val("Cc1nc2c(-c3ccccc3)cnn2c(N2CCOCC2)c1C")
"2.33 µM (active)"
>>> val("CNc1nc(N2CCc3ccccc32)ncc1F")
"1.85 µM (active)"
>>> val("CN(C)c1oc(/C=C/c2ccccc2)nc1C#N")
"5.85 µM (active)"
>>> val("Cc1ccc2c(c1)NC(=O)CC(c1ccccc1)=N2")
"13.1 µM (active)"
>>> val("CN1CCN(/N=C/c2ccc(Cl)c(Cl)c2)CC1")
"7.36 µM (active)"
>>> val("O=C(CSc1ccccc1)NC1CCCCCC1")
"14.7 µM (active)"

Data origin, for the record: PubChem BioAssay AID2289
